# Experimental Details: Inhibition of phosphodiesterase 4
Measurement Name: IC50

Qu. Endpoint output: IC50 of CCOC(=O)c1cnc2cc(C(F)(F)F)ccc2c1NCc1ccc(OC)c(Cl)c1 . Value?
Ans. > 50 µM

----------
# Measurement Target: UniProt:O76074
Below: a set of entries, each annotated with reported pIC50.
The scale used: pIC50 is minus the common logarithm of the concentration in molar units.

Some compounds with known pIC50 results, for comparison:
>  <Line Notation>
CCc1cc(C#N)cc2c(NCc3ccc(OC)c(Cl)c3)c(C(=O)NCc3ccccn3)cnc12

>  <pIC50>
9.26

$$$$
>  <Line Notation>
COc1ccc(CNc2c(C(=O)NCc3ccccn3)cnc3ccc(C#N)cc23)cc1Cl

>  <pIC50>
8.89

$$$$
>  <Line Notation>
CCOC(=O)c1cnc2ccc(C(F)(F)F)cc2c1NCc1ccc(OC)c(Cl)c1

>  <pIC50>
7.14

$$$$
>  <Line Notation>
COc1ccc(CNc2c(CO)cnc3ccc(C#N)cc23)cc1Cl

>  <pIC50>
9.32

$$$$

Now for a further compound.
Qu. Endpoint output: pIC50 of CCOC(=O)c1cnc2cc(C(F)(F)F)ccc2c1NCc1ccc(OC)c(Cl)c1 . Value?
Ans. 6.80

----------
# Measurement Target: cGMP-dependent 3',5'-cyclic phosphodiesterase (Rattus norvegicus) (UniProt Q01062)
# Sequence (Q01062 whole entry, looked up): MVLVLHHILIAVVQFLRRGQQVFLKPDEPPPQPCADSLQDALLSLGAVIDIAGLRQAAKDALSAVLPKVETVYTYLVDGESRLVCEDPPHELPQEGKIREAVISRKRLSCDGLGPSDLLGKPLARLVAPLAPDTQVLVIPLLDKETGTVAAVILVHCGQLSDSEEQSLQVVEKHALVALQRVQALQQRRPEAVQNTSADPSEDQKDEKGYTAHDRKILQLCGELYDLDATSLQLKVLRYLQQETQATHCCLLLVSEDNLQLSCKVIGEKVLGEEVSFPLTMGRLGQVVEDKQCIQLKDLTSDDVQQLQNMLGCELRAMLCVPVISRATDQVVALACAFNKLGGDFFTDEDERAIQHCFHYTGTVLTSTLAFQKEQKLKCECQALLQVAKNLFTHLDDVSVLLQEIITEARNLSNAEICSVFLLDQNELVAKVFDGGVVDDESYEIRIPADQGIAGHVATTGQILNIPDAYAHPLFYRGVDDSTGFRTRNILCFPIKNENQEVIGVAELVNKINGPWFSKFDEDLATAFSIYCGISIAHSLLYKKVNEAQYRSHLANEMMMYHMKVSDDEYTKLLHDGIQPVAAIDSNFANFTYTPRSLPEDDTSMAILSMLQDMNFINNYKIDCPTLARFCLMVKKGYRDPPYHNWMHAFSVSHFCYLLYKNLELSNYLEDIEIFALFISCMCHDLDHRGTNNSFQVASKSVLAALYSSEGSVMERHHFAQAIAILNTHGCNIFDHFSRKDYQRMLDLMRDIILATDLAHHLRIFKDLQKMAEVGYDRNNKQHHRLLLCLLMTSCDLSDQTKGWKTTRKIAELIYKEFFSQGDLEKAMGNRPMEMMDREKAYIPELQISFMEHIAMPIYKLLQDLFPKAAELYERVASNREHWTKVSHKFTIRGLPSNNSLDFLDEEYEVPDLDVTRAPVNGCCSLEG
Measurement Name: IC50

Qu. Query the reported IC50 for cGMP-dependent 3',5'-cyclic phosphodiesterase (Rattus norvegicus) (UniProt Q01062); item: CCOC(=O)c1cnc2cc(C(F)(F)F)ccc2c1NCc1ccc(OC)c(Cl)c1
Ans. > 50 µM

----------
Below: a set of entries, each annotated with reported Selectivity ratio.
# Experimental Details: Relative inhibition of rat kidney PDE4 and human platelet PDE 5
Form rule: numeric answer, no unit written next to it.

Some molecules with known Selectivity ratio results, for comparison:
>  <Line Notation>
COc1ccc(CNc2ccnc3ccc(C#N)cc23)cc1Cl

>  <Selectivity ratio>
3500

$$$$
>  <Line Notation>
CCOC(=O)c1cnc2ccc(C(F)(F)F)cc2c1NCc1ccc(OC)c(Cl)c1

>  <Selectivity ratio>
247

$$$$
>  <Line Notation>
COc1ccc(CNc2c(C(=O)NCc3ccccn3)cnc3ccc(C#N)cc23)cc1Cl

>  <Selectivity ratio>
3100

$$$$
>  <Line Notation>
CCOC(=O)c1cnc2ccc(C#N)cc2c1NCc1ccc(OC)c(Cl)c1

>  <Selectivity ratio>
3800

$$$$

Now for a further molecule.
Qu. Endpoint output: Selectivity ratio of CCc1cc(C#N)cc2c(NCc3ccc(OC)c(Cl)c3)ccnc12 . Value?
Ans. 2200

----------
# Experimental Details: Relative inhibition of bovine retina PDE6 and human platelet PDE 5
Measurement Name: Selectivity ratio
Form rule: numeric answer, no unit written next to it.

Some molecules with known Selectivity ratio results, for comparison:
>  <Line Notation>
CCOC(=O)c1cnc2ccc(C(F)(F)F)cc2c1NCc1ccc(OC)c(Cl)c1

>  <Selectivity ratio>
75

$$$$
>  <Line Notation>
CCc1cc(C#N)cc2c(NCc3ccc(OC)c(Cl)c3)c(C(=O)NCc3ccccn3)cnc12

>  <Selectivity ratio>
82

$$$$
>  <Line Notation>
CCOC(=O)c1cnc2c(CC)cc(C#N)cc2c1NCc1ccc(OC)c(Cl)c1

>  <Selectivity ratio>
110

$$$$
>  <Line Notation>
COc1ccc(CNc2ccnc3ccc(C#N)cc23)cc1Cl

>  <Selectivity ratio>
29

$$$$
>  <Line Notation>
COc1ccc(CNc2c(CO)cnc3ccc(C#N)cc23)cc1Cl

>  <Selectivity ratio>
23

$$$$

Qu. Endpoint output: Selectivity ratio of CCOC(=O)c1cnc2cc(C(F)(F)F)ccc2c1NCc1ccc(OC)c(Cl)c1 . Value?
Ans. 125

Qu. Also, CCc1cc(C#N)cc2c(NCc3ccc(OC)c(Cl)c3)ccnc12 please.
Ans. 40
